The measured values listed here are drawn from the supplement of paper PMC12645437.

# TARGET: T1, CRBN, Q96SW2;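 note: pooled lentiviral library of zinc finger degron-EGFP fusions in mCherry-positive Jurkat cells, FACS-sorted after compound exposure, with degron abundance counted by next-generation sequencing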
# T1 chain: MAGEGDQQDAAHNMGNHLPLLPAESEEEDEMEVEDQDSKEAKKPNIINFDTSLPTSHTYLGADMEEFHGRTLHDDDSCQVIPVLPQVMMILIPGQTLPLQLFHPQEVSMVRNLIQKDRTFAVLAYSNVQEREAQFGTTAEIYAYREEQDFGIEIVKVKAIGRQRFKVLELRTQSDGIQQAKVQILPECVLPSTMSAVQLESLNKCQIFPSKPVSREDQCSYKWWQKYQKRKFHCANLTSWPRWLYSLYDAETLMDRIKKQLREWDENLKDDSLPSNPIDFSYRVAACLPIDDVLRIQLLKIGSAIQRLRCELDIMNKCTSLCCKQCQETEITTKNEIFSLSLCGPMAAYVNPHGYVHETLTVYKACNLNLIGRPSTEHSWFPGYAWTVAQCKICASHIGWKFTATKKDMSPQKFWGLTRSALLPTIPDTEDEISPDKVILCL
# METHOD SUMMARY: log2 fold change of degron read counts, EGFP-low vs EGFP+ sorted cells (limma voom), compound-induced degradation; higher = more compound-induced degradation of the degron-EGFP fusion; degrons are variants of IKZF1/3 zinc finger 2; compound dose not given here
# ASSAY CONDITIONS: Jurkat; 18 h; compound: compound 33 (diphenyl IMiD analogue)
The full ranking holds about 8,300 sequences; the median of “log2 fold change of degron read counts, EGFP-low vs EGFP+ sorted cells (limma voom), compound-induced degradation” is about -1.1, and the highest 2% start at about 3.2. The entries come from a sample that favours the highest values as a whole.
Each record's log2 fold change of degron read counts is compared with low-valued = under 0.2, mid-valued = from 0.2 up to 1, high-valued = 1 and over to give its class.

Please let me know in which category the item FHCNICGAQFTQKGNLLRHIKL [46F_47H_49N_50I_52G_53A_54Q_55F_67L_, Q9UKT9] belongs.
high-valued

Please let me know in which category the item FQCEICGALFTQKGNLLRHIKL [46F_47Q_49E_50I_52G_53A_54L_55F_67L_, Q9UKT9] belongs.
high-valued

Please let me know in which category the item FDCEICGALFTQKGNLLRHIKL [46F_47D_49E_50I_52G_53A_54L_55F_67L_, Q9UKT9] belongs.
low-valued

Please let me know in which category the item FACEICGALFTQKGNLLRHIKL [46F_47A_49E_50I_52G_53A_54L_55F_67L_, Q9UKT9] belongs.
low-valued

Please let me know in which category the item FYCEICGALFTQKGNLLRHIKL [46F_47Y_49E_50I_52G_53A_54L_55F_67L_, Q9UKT9] belongs.
high-valued

Please let me know in which category the item LFCEICGFKCTQKGNLLRHIKL [46L_47F_49E_50I_52G_53F_54K_55C_67L_, Q9UKT9] belongs.
mid-valued

Please let me know in which category the item LTCEICGFKCTQKGNLLRHIKL [46L_47T_49E_50I_52G_53F_54K_55C_67L_, Q9UKT9] belongs.
low-valued

Please let me know in which category the item LECEICGFKCTQKGNLLRHIKL [46L_47E_49E_50I_52G_53F_54K_55C_67L_, Q9UKT9] belongs.
low-valued

Please let me know in which category the item LQCEICGFKCTQKGNLLRHIKL [46L_47Q_49E_50I_52G_53F_54K_55C_67L_, Q9UKT9] belongs.
mid-valued

Please let me know in which category the item FLCEICGALFTQKGNLLRHIKL [46F_47L_49E_50I_52G_53A_54L_55F_67L_, Q9UKT9] belongs.
mid-valued

Please let me know in which category the item FFCEICGALFTQKGNLLRHIKL [46F_47F_49E_50I_52G_53A_54L_55F_67L_, Q9UKT9] belongs.
high-valued

Please let me know in which category the item FFCNVCGAAFTQKGNLLRHIKL [46F_47F_49N_50V_52G_53A_54A_55F_67L_, Q9UKT9] belongs.
mid-valued

Please let me know in which category the item LYCEICGFKCTQKGNLLRHIKL [46L_47Y_49E_50I_52G_53F_54K_55C_67L_, Q9UKT9] belongs.
high-valued

Please let me know in which category the item LSCEICGFKCTQKGNLLRHIKL [46L_47S_49E_50I_52G_53F_54K_55C_67L_, Q9UKT9] belongs.
low-valued

Please let me know in which category the item FECNICGALFTQKGNLLRHIKL [46F_47E_49N_50I_52G_53A_54L_55F_67L_, Q9UKT9] belongs.
low-valued
